- TGT: T1, human CD20 antigen (human, UniProt P11836 1-297)
- T1 construct: whole, on cells; also called CD20/CHO cells; CD20 on Raji cells
- T1 sequence (looked up): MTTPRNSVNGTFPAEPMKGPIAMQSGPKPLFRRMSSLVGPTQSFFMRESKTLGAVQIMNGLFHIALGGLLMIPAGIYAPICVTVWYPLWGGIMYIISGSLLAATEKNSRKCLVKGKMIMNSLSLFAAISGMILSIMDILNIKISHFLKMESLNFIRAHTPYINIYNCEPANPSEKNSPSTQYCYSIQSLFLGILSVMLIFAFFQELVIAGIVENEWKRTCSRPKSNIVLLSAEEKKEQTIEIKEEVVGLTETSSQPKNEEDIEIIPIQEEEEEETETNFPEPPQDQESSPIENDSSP
- MEASUREMENT PROTOCOL: CD20/CHO cell-ELISA, antibody at 32 ng/ml
READOUT KIND: A492 (A492)
# output: bare number, implied unit A492

Known A492 results, listed for orientation:
{"BINDER": "chimeric anti-CD20 monoclonal antibody c1K1712 (antibody, V domains shown, Murine variable regions fused to human immunoglobulin H chain and L chain (kappa) constant regions of vector pNOW-Ab) VH: QVQLQQPGAELVKPGASVKMSCKASGFTFTSYNLHWVKQTPGQGLEWIGAIYPGSGDTSYNQQFKGKATLTADKSSNTAYMQLNSLTSEDSAVYCCARSAMISTGNWYFDYWGQGTTLTVSS VL: QIVLSQSPAILSASPGEKVTMTCRASSSVSYMDWYQQKPGSSPKPWIYATSNLASGVPARFSGSGSGTSYSLTISRVEAEDTATYYCQQWTFNPPTFGSGTKLEIK", "TEST RESULT": 1.68}
{"BINDER": "chimeric anti-CD20 monoclonal antibody c1K1782 (antibody, V domains shown, Murine variable regions fused to human immunoglobulin H chain and L chain (kappa) constant regions of vector pNOW-Ab) VH: QVQLQQSGAELAKPGASVKMSCKASGYTFTSYWMHWVKQRPGQGLEWIGYITPSTGYTDYNKKFKDKATLTADRSSSTAYMHLSSLTSEDSAVYYCARSGPYFDVWGAGTTVTVSS VL: DILLTQSPAILFVSPGERVSLSCRASQNIGTSIHWYQQRTNGSPRLLIKYASESFSGIPSRFSGSGSGTDFTLSINSVESEDIADYYCQQSNSWPFTFGSGTKLEIK", "TEST RESULT": 1.02}

# ---- query binder ----
Query: Give the measured A492 of chimeric anti-CD20 monoclonal antibody c1K1228 (antibody, V domains shown, Murine variable regions fused to human immunoglobulin H chain and L chain (kappa) constant regions of vector pNOW-Ab) VH: QVQLQQPGAELVKPGASVKVSCKASGFTFTSYNLHWVKQTPGQGLVWIGAIYPGNGDTSYNQKFRGKATLTADISSSTAYMQLSSLTSEDSAVYYCARYYYGYDAMDYWGQGTSVTVSS VL: EIILTQSPTTMAASPGEKITITCSASSSISSYYLRWYQQKPGFSPKVLIYRTSNLASGVPARFSGSGSGTSYSLTIGTMEAEDVATYYCQQGNTVPLTFGSGTKLEIK .
Reply: 1.58
